test system: SK-MEL-2; experiment: NCI tumour cell line growth inhibition, 48 h
Calls of active or inactive are those of the source. No stated cut-off is given here; in the data, active = GI50 up to about 1.1 µM and inactive = higher.
Outcomes: active, inactive

>  <molecule>
COc1c(N2CCCCC2)c2c(=O)c3ccccc3oc2c2cc(C)oc12

>  <discrete label>
inactive

$$$$
>  <molecule>
COc1cc2c(c(OC)c1O)-c1ccc(OC)c(=O)cc1[C@@H](NC(=O)C(F)(F)F)CC2

>  <discrete label>
active

$$$$
>  <molecule>
CCn1c2ccccc2c2nnc(NCCCO)nc21

>  <discrete label>
inactive

$$$$
>  <molecule>
CN[C@H]1CC[C@]23C[C@]24CC[C@]2(C)[C@@H]([C@H](C)N(C)C)CC[C@@]2(C)[C@@H]4CC[C@H]3C1(C)C

>  <discrete label>
inactive

$$$$
>  <molecule>
CC(NC(=O)N(C)C)NC(=O)N(C)C

>  <discrete label>
inactive

$$$$
>  <molecule>
COc1c(-c2ccc(F)cc2)oc2c(CC(=O)O)cccc2c1=O

>  <discrete label>
inactive

$$$$
>  <molecule>
O=C1C(Sc2ccc3ccccc3c2)=C(Sc2ccc3ccccc3c2)C(=O)c2ccccc21

>  <discrete label>
inactive

$$$$
>  <molecule>
COCCN(CCNC(=O)c1cccc2c(N)c3cccc(C)c3nc12)CCOC

>  <discrete label>
inactive

$$$$
>  <molecule>
COc1cc(/C=C/C(=O)CC(=O)/C=C/c2ccc(OC(=O)CCCCC3CCSS3)c(OC)c2)ccc1OC(=O)CCCCC1CCSS1 (centres undefined)

>  <discrete label>
inactive

$$$$
